experiment: protein stability index of a GFP-peptide fusion (yeast GPS) (PSI 1-4); higher = more stable; sorted into four equal gates, so the index is relative within each strain; conditions: ubr1∆
Hi all, reminder that labels come from protein stability index, split as Low = under 2, Mid = from 2 up to 3, High = 3 and over

Query: Exercise: read the entry RIKITANNNMNDELVEL [GRR1] and state which class it falls under.
Reply: Mid

Query: Exercise: read the entry TFRLPKTLKLARAPKYA [RPL25] and state which class it falls under.
Reply: Low

Query: Exercise: read the entry SRGAVSGQKAGLIAARR [RPL2A] and state which class it falls under.
Reply: High

Query: Exercise: read the entry NFPDEDDDDSRKSAPVD [SKP1] and state which class it falls under.
Reply: High

Query: Exercise: read the entry GKHNLTIWCVCDSYLDA [BRR2] and state which class it falls under.
Reply: Mid

Query: Exercise: read the entry ELEQLSSEALEAARICA [RPL10] and state which class it falls under.
Reply: Low

Query: Exercise: read the entry WEHTAAEDQILANFVAK [SRB8] and state which class it falls under.
Reply: Mid

Query: Exercise: read the entry KLLKIPKFISEALAFTS [YDL116W/NUP84] and state which class it falls under.
Reply: Mid

Query: Exercise: read the entry PTTNEPAKPALSFGTAT [YJL041W/NSP1] and state which class it falls under.
Reply: High

Query: Exercise: read the entry SSFRPCPLSQQFCGIKE [BRR2] and state which class it falls under.
Reply: Mid

Query: Exercise: read the entry LAEIKKTPLLKQYLSAS [RPL6B] and state which class it falls under.
Reply: Low

Query: Exercise: read the entry LHIHGSSNPLGITGNLD [COB] and state which class it falls under.
Reply: Mid

Query: Exercise: read the entry FKHISVKDFTSLGFNEV [RPO21] and state which class it falls under.
Reply: Mid

Query: Exercise: read the entry ENSAVAAKEGLALSSNI [COR1] and state which class it falls under.
Reply: Mid

Query: Exercise: read the entry SPTENGVFDPASYAKYL [RPL22A] and state which class it falls under.
Reply: Mid

Query: Exercise: read the entry QIIQRDKINKYSLIRET [SNF5] and state which class it falls under.
Reply: Low

Query: Exercise: read the entry KCGVISPRFNVKIGDIE [RPS22A] and state which class it falls under.
Reply: High

Query: Exercise: read the entry FWSFLDSLIFKDSSLNY [YJL039C/NUP192] and state which class it falls under.
Reply: Mid

Query: Exercise: read the entry ELDQFWQEYSSVFKGGM [SRP14] and state which class it falls under.
Reply: High

Query: Exercise: read the entry EARLPSQVVWIRRLRVL [RPL19A] and state which class it falls under.
Reply: Low

Query: Exercise: read the entry SLEDKILRMGAFRTIES [RRI1] and state which class it falls under.
Reply: Mid

Query: Exercise: read the entry CVEWRLPEIAKEIYTTL [YJR042W/NUP85] and state which class it falls under.
Reply: Low

Query: Exercise: read the entry LFKTLFKKLTKDIFRYM [RPB2] and state which class it falls under.
Reply: Low

Query: Exercise: read the entry FSHSLTTILSFSSPAAL [NUT1] and state which class it falls under.
Reply: Low

Query: Exercise: read the entry LVLADAFDIELSEFGIK [YCS4] and state which class it falls under.
Reply: Mid

Query: Exercise: read the entry LSLTAVPSFLRPDITMY [GRR1] and state which class it falls under.
Reply: Mid

Query: Exercise: read the entry QFASPVRWIETQDVFLK [FAS2] and state which class it falls under.
Reply: Mid

Query: Exercise: read the entry NNGNNSTSIQYHGISKN [POP6] and state which class it falls under.
Reply: Mid

Query: Exercise: read the entry CKIDFQKNFMDQFQWIL [RRI2] and state which class it falls under.
Reply: Low

Query: Exercise: read the entry LNRIKKYLLTQRVFKPV [PRP8] and state which class it falls under.
Reply: Mid

Query: Exercise: read the entry AQNQGMFGAKPAGTSLF [YGL172W/NUP49] and state which class it falls under.
Reply: Mid

Query: Exercise: read the entry DMENMADEQKRSTDVWY [ARP7] and state which class it falls under.
Reply: Mid

Query: Exercise: read the entry VPPINCIFNFLQQQTPV [SME1] and state which class it falls under.
Reply: Low

Query: Exercise: read the entry VCKKADVDLHKRAGELT [RPS18A] and state which class it falls under.
Reply: High

Query: Exercise: read the entry DVNDVLTKYIRSKNLIF [GRR1] and state which class it falls under.
Reply: Mid

Query: Exercise: read the entry VTRTHGNSGVVRATFRN [RPL33A] and state which class it falls under.
Reply: Mid

Query: Exercise: read the entry LDALTRHIKSKHEDLSL [RPN4] and state which class it falls under.
Reply: Mid

Query: Exercise: read the entry SGLFVDVKKRTYEAIDV [RPB2] and state which class it falls under.
Reply: High
